target: Tyrosinase (Agaricus bisporus); experiment: Inhibition of mushroom tyrosinase using L-DOPA as substrate at 50 uM after 10 mins by UV absorbance method
Calls of active or inactive are those of the source. No cut-off for these calls is given here.
The categories you may choose from are yes (active), no (inactive)

compound | assaySystem | groupLabel
C[C@H](NC(=O)/C=C/c1ccc(O)c(O)c1)C(=O)NO | Tyrosinase (Agaricus bisporus) | yes
O=C(/C=C/c1ccc(O)c(O)c1)NC(Cc1ccccc1)C(=O)NO (configuration not stated) | Tyrosinase (Agaricus bisporus) | yes

Hi team, can someone confirm the assay call for O=C(/C=C/c1ccc(O)c(O)c1)NCC(=O)NO ? yes

Hi team, can someone confirm the assay call for O=C(/C=C/c1ccc(O)c(O)c1)NCCC(=O)NO ? yes

Hi team, can someone confirm the assay call for CC(C)C[C@H](NC(=O)/C=C/c1ccc(O)c(O)c1)C(=O)NO ? yes

Hi team, can someone confirm the assay call for O=C(NO)[C@@H]1CCCN1C(=O)/C=C/c1ccc(O)c(O)c1 ? yes

Hi team, can someone confirm the assay call for O=C(O)/C=C/c1ccc(O)c(O)c1 ? no
